Species on record: Homo sapiens
Experiment: Selectivity ratio of IC50 for TCPTP (unknown origin) to IC50 for PTP1B (unknown origin)
In this section we review reported Ratio IC50 values for a set of compounds.

Recorded results for 3 compounds are shown here.
{"cpd_smiles": "O=C(OC1CSSC1)c1ccc(CCCCCCOC(=O)c2cc(Br)ccc2Br)cc1", "Ratio IC50": "> 6"}
{"cpd_smiles": "O=C(OC1CSSC1)c1ccc(C#CCCCCOC(=O)c2cc(Br)ccc2Br)cc1", "Ratio IC50": 3}
{"cpd_smiles": "COc1ccc(C(=O)OCCCCC#Cc2ccc(C(=O)OC3CSSC3)cc2)c(OC)c1", "Ratio IC50": 5}

# next compound below
stdin: Read off the recorded Ratio IC50 for O=C(OC1CSSC1)c1ccc(C#CCCOC(=O)c2cc(Br)ccc2Br)cc1
stdout: 10

----------
Biological target: UniProt P10586
Sequence (P10586 whole entry): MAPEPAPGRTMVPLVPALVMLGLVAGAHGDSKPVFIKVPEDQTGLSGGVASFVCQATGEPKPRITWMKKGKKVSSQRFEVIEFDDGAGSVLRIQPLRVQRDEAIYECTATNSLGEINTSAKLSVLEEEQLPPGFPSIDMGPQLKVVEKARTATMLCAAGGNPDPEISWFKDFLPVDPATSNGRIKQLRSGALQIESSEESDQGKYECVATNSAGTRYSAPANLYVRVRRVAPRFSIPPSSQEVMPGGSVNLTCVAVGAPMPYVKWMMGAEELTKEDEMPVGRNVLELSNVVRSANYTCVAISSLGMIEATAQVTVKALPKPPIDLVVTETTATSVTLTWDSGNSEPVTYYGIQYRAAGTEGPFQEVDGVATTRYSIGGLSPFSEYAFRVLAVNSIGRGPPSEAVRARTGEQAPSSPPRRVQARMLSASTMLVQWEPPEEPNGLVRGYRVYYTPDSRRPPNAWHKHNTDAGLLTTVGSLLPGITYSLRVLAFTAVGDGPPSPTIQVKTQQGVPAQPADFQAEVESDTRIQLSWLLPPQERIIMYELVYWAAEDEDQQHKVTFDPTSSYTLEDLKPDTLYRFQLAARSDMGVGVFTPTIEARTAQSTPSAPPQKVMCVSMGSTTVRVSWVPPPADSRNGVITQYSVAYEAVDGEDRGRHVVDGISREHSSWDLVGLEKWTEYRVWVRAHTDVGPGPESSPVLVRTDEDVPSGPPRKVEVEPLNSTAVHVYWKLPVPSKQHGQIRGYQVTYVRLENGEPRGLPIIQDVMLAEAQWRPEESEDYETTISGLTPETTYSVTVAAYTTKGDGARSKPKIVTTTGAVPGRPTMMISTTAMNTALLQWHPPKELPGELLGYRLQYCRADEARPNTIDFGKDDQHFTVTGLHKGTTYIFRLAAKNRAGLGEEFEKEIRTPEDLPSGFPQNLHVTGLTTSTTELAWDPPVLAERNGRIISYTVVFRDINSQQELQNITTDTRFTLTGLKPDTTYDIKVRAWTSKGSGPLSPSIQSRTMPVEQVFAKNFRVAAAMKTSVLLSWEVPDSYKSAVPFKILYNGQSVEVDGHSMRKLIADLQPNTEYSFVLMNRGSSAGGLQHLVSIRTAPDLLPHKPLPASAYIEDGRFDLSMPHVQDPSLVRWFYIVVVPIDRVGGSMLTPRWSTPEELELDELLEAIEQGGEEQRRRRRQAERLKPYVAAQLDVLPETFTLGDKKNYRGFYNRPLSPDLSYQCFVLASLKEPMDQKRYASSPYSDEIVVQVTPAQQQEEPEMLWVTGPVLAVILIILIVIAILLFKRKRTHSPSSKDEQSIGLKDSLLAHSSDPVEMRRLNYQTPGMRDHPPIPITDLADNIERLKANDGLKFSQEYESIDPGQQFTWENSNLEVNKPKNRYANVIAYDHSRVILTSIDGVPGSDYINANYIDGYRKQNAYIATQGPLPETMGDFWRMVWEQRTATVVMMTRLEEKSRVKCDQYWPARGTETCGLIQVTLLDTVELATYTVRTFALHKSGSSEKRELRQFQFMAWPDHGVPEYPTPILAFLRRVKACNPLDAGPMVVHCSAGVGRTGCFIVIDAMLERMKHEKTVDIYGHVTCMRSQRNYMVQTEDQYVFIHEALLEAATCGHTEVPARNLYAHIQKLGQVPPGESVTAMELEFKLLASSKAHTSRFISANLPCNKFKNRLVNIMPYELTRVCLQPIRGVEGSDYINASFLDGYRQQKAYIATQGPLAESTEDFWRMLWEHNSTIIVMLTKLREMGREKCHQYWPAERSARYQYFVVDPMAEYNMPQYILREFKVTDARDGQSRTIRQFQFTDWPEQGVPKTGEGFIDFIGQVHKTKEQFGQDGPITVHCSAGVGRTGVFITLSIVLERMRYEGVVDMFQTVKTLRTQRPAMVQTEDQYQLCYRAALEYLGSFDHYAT
Test: Inhibition of LAR (unknown origin)
measurement_type: IC50

{"cpd_smiles": "O=C(OCCCCC#Cc1ccc(C(=O)OC2CSSC2)cc1)c1cccc([N+](=O)[O-])c1", "measurement_type": "IC50", "experimental_result": "Not Active"}
{"cpd_smiles": "O=C(OC1CSSC1)c1ccc(OCCOC(=O)c2cc(Br)ccc2Br)cc1", "measurement_type": "IC50", "experimental_result": "Not Active"}
{"cpd_smiles": "O=C(OC1CSSC1)c1ccc(C#CCCCCOC(=O)c2ccccc2F)cc1", "measurement_type": "IC50", "experimental_result": "Not Active"}
{"cpd_smiles": "O=C(OC1CSSC1)c1ccc(OCCCOC(=O)c2cc(Br)ccc2Br)cc1", "measurement_type": "IC50", "experimental_result": "Not Active"}
{"cpd_smiles": "O=C(OCCCCC#Cc1ccc(C(=O)OC2CSSC2)cc1)c1cccc(F)c1", "measurement_type": "IC50", "experimental_result": "Not Active"}
{"cpd_smiles": "O=C(OCCCCC#Cc1ccc(C(=O)OC2CSSC2)cc1)c1ccc(F)cc1", "measurement_type": "IC50", "experimental_result": "Not Active"}

stdin: Read off the recorded IC50 for COc1ccccc1C(=O)OCCCCC#Cc1ccc(C(=O)OC2CSSC2)cc1
stdout: Not Active

stdin: Read off the recorded IC50 for O=C(OC1CSSC1)c1ccc(OCCCCCCOC(=O)c2cc(Br)ccc2Br)cc1
stdout: Not Active

stdin: Read off the recorded IC50 for O=C(OC1CSSC1)c1ccc(C#CCCCCOC(=O)c2cc(Br)ccc2Br)cc1
stdout: Not Active

----------
Target: Tyrosine-protein phosphatase non-receptor type 11 (Homo sapiens)
Sequence (Q06124 whole entry): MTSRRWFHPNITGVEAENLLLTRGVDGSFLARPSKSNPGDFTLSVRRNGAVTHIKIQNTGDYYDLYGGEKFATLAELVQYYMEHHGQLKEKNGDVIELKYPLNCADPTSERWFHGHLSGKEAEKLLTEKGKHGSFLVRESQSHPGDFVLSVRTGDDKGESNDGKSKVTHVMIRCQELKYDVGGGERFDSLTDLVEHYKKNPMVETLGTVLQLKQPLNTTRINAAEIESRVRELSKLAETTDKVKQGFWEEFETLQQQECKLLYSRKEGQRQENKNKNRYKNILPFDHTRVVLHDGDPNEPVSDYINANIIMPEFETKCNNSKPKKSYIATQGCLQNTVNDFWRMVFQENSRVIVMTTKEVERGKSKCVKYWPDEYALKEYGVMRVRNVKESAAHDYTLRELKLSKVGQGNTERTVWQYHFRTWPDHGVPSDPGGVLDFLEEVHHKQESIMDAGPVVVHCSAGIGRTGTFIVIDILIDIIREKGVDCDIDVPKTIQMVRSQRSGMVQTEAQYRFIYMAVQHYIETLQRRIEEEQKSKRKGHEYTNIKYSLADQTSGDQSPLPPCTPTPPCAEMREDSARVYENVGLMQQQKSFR
Experiment: Inhibition of SHP2 (unknown origin)
Settings: read-out: IC50
measurement_type: IC50 (µM)
Report the figure in µM without appending any unit label.

Recorded results for 2 compounds are shown here.
{"cpd_smiles": "O=C(OCCCCC#Cc1ccc(C(=O)OC2CSSC2)cc1)c1ccc(F)cc1", "measured_target": "Tyrosine-protein phosphatase non-receptor type 11 (Homo sapiens)", "units": "µM", "IC50": 9.41}
{"cpd_smiles": "O=C(OCCCCC#Cc1ccc(C(=O)OC2CSSC2)cc1)c1cccc([N+](=O)[O-])c1", "measured_target": "Tyrosine-protein phosphatase non-receptor type 11 (Homo sapiens)", "units": "µM", "IC50": 22.3}

stdin: Read off the recorded IC50 for O=C(OC1CSSC1)c1ccc(C#CCCCCOC(=O)c2ccccc2[N+](=O)[O-])cc1
stdout: 11.5
